- Test system: ApoB secretion in HepG2 cells
- runDescription: ApoB secretion in HepG2 cells (oleate stimulated, ELISA)
- Format: cell-based
- conditionSet: Homo sapiens, linked bioactive
valueType: pIC50
Interpret pIC50 as the negative base-10 log of the concentration measured in mol/L.

// pIC50 lookup, key: CC/C=C\C/C=C\C/C=C\C/C=C\C/C=C\C/C=C\CCC(=O)NCCNC(=O)c1cccnc1 [III-2]
4.30

Query (compound): CC/C=C\C/C=C\C/C=C\C/C=C\C/C=C\CCCC(=O)NCCNC(=O)c1cccnc1 [III-1] ; field requested: pIC50
4.30

Find the recorded pIC50 belonging to CC/C=C\C/C=C\C/C=C\C/C=C\C/C=C\C/C=C\CCC(=O)N1CCN(C(=O)CCC/C=C\C/C=C\C/C=C\C/C=C\C/C=C\CC)CC1 [VI-1] and report it.
5.00

====

- Tested on: NFκB
- runDescription: NFκB-driven luciferase reporter assay in LPS-challenged RAW 264.7 macrophages
- Assay type: cell-based
- conditionSet: Mus musculus, RAW264.7; RAW 264.7, LPS 200 ng/mL; linked bioactive; read-out: IC50 in an NFkB assay
valueType: pIC50
Conceptually, pIC50 converts a concentration in mol/L into minus its log10.

Which measured pIC50 value corresponds to CC/C=C\C/C=C\C/C=C\C/C=C\C/C=C\C/C=C\CCC(=O)NCCNC(=O)CC/C=C\C/C=C\C/C=C\C/C=C\C/C=C\C/C=C\CC ?
4.17

Return reported pIC50; argument: CC/C=C\C/C=C\C/C=C\C/C=C\C/C=C\C/C=C\CCC(=O)NCCNC(=O)CCC/C=C\C/C=C\C/C=C\C/C=C\C/C=C\CC
4.20

Any idea what pIC50 was measured for CC/C=C\C/C=C\C/C=C\C/C=C\C/C=C\C/C=C\CCC(=O)NCCNC(=O)/C=C/C(=O)OC ?
4.80
